# SUBJECT_OF_TEST: GR DBD (human, UniProt P04150 418-493)
# Sequence (P04150 418-493): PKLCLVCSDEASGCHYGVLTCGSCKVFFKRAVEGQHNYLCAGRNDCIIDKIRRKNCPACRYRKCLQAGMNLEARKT
# EXPERIMENTAL_DETAILS: fluorescence polarization; FP: 20 mM Tris-HCl pH 7.4, 150 mM NaCl, 5% glycerol; 10 nM FAM-DNA, 1 nM-50 uM DBD; temperature not stated
# CONDITION_SUMMARY: protein: recombinant; tags: 6xHis (pMCSG7 vector); chain copies: 2; label: 5' FAM on strand 1; as printed the second strand lacks its 3' terminal G (5' overhang 1 nt on strand 1); possibly a misprint
READOUT_NAME: Kd (nM)

1. pre-GBS (dsDNA) DNA 1: CCAGAACGGAGCGTTCTGA DNA 2: TCAGAACGCTCCGTTCTG | 206
